biological target: hMOR (Homo sapiens); assay: Radioligand binding assay (Eurofins Cerep), [3H]DAMGO displacement; conditions: Table 3-4; 3 independent experiments; read-out: Ki (nM ± SEM) MOR
Sequence (P35372 whole entry): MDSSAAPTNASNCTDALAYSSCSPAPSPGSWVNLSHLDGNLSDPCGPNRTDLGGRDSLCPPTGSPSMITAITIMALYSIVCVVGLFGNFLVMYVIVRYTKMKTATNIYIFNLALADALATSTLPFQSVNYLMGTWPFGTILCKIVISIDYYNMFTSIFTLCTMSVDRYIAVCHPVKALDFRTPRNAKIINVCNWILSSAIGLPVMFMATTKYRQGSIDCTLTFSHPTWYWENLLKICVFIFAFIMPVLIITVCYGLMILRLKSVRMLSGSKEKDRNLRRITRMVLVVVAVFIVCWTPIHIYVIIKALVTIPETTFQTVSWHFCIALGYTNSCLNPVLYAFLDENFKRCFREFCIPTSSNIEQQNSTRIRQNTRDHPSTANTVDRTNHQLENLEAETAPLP
Items are presented alongside their recorded Ki.

Molecular String | Comparison Operator | Ki [nM]
COC(=O)CC1CCN(CCc2c[nH]c3ccccc23)CC1 | = | 2230
COC=C(C(=O)OC)C1CCN(Cc2ccccc2)CC1 | > | 10000
CO/C=C(/C(=O)OC)C1CCN(CCc2c[nH]c3ccccc23)CC1 | = | 451

---

biological target: α2A adrenergic receptor (Homo sapiens); construct: Eurofins Cerep (contract screening); assay: Radioligand binding assay (Eurofins Cerep), [3H]RX 821002 displacement; details: alpha2A Ki ± SEM (nM), Table B1′
Sequence (P08913 whole entry): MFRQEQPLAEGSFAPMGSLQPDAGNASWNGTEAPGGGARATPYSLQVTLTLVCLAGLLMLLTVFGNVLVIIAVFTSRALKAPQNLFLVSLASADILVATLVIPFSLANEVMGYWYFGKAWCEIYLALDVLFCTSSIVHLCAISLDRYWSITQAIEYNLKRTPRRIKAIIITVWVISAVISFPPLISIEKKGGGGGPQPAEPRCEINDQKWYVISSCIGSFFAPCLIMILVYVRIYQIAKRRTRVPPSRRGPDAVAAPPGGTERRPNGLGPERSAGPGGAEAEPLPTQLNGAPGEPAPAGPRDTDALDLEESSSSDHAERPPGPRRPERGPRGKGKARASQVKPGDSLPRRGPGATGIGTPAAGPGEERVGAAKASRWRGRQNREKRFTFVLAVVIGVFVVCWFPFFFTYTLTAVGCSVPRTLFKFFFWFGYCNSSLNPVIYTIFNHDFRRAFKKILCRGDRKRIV

Compound | Target Of Assay | Output Unit | Ki
COC(=O)C=C1CCN2CCC(O)(c3cccc(OC)c3)CC2C1 (stereo not shown) [drawing 180] | α2A adrenergic receptor (Homo sapiens) | nM | 44
COc1ccccc1C1(O)CCN2CCC(=O)CC2C1 (stereo not shown) | α2A adrenergic receptor (Homo sapiens) | nM | 5750
COC(=O)C=C1CCN2CCC(O)(c3ccc(F)cc3)CC2C1 (stereo not shown) | α2A adrenergic receptor (Homo sapiens) | nM | 311
COC(=O)C=C1CCN2CCC(O)(c3cccc(OC)c3)CC2C1 (stereo not shown) [drawing 179] | α2A adrenergic receptor (Homo sapiens) | nM | 37
COC(=O)CC1CCN2CCC(O)(c3ccccc3OC)CC2C1 (single isomer, unassigned) | α2A adrenergic receptor (Homo sapiens) | nM | 3470
COC(=O)CC1CCN2CCC(O)(c3ccccc3)CC2C1 (stereo not shown) [drawing 173] | α2A adrenergic receptor (Homo sapiens) | nM | 129
COC(=O)C=C1CCN2CCC(O)(c3ccccc3OC)CC2C1 (stereo not shown) [drawing 167] | α2A adrenergic receptor (Homo sapiens) | nM | 227
COC(=O)C=C1CCN2CCC(O)(c3ccccc3)CC2C1 (stereo not shown) [drawing 176] | α2A adrenergic receptor (Homo sapiens) | nM | 155
COC(=O)CC1CCN2CCC(O)(c3ccc(F)cc3)CC2C1 (stereo not shown) | α2A adrenergic receptor (Homo sapiens) | nM | 240
COC(=O)CC1CCN2CCC(c3ccccc3OC)=CC2C1 (stereo not shown) | α2A adrenergic receptor (Homo sapiens) | nM | 39

---

Items are presented alongside their recorded RLM stability.
test: Metabolic stability in rat liver microsomes; format: in vitro ADME; conditions: rat liver microsomes 1 mg/ml, substrate 1 μM, NADPH, 37° C.
Property: RLM stability

Compound | Value Reported
CC[C@@H]1CN2CCc3c([nH]c4cccc(OC)c34)[C@@H]2C[C@@H]1/C(=C\OC)C(=O)NC1CCCC1 [SUSM-506] | 30 min
CC[C@@H]1CN2CCc3c([nH]c4cccc(OC)c34)[C@@H]2C[C@@H]1/C(=C\OC)C(=O)NC1CCCCC1 [SUSM-519] | 30 min
CC[C@@H]1CN2CCc3c([nH]c4cccc(OC)c34)[C@@H]2C[C@@H]1/C(=C\OC)C(=O)NC [SUSM-25] | >60 min
CC[C@@H]1CN2CCc3c([nH]c4cccc(OC)c34)[C@@H]2C[C@@H]1/C(=C\OC)C(=O)N(C)C [SUSM-501] | 6 min
CC[C@@H]1CN2CCc3c([nH]c4cccc(OC)c34)[C@@H]2C[C@@H]1/C(=C\OC)C(=O)N(CC)CC [SUSM-509] | <5 min
CCCN(C)C(=O)/C(=C/OC)[C@H]1C[C@H]2c3[nH]c4cccc(OC)c4c3CCN2C[C@H]1CC [SUSM-521] | <5 min
CCNC(=O)/C(=C/OC)[C@H]1C[C@H]2c3[nH]c4cccc(OC)c4c3CCN2C[C@H]1CC [SUSM-32] | >60 min

---

Items are presented alongside their recorded Ki.
target: UniProt:P35372; experiment: Radioligand binding assay (Eurofins Cerep), [3H]DAMGO displacement; details: Table 3-2; 3 independent experiments; read-out: Ki (nM ± SEM) MOR
Property: Ki

Molecular String | Value Reported
COC(=O)CC1CCN(CCc2c[nH]c3ccc(OC)cc23)CC1 | > 10000 nM
COC(=O)CC1CCN(CCc2c[nH]c3cccc(OC)c23)CC1 | > 10000 nM
COC(=O)CC1CCN(CCc2c[nH]c3c(OC)cccc23)CC1 | > 10000 nM
COC=C(C(=O)OC)C1CCN(CCc2c[nH]c3ccc(OC)cc23)CC1 | 733 nM
COC(=O)CC1CCN(CCc2c[nH]c3ccccc23)CC1 | 2230 nM
CO/C=C(/C(=O)OC)C1CCN(CCc2c[nH]c3ccccc23)CC1 | 451 nM
COC=C(C(=O)OC)C1CCN(CCc2c[nH]c3cc(OC)ccc23)CC1 | > 10000 nM
COC=C(C(=O)OC)C1CCN(CCc2c[nH]c3c(OC)cccc23)CC1 | 5130 nM
COC(=O)CC1CCN(CCc2c[nH]c3cc(OC)ccc23)CC1 | > 10000 nM

---

target: hDOR (Homo sapiens, UniProt P41143); experiment: Radioligand binding assay (Eurofins Cerep), [3H]DADLE displacement; settings: Table A4, data summary #2; read-out: DOR Ki ± SEM
Sequence (P41143 whole entry): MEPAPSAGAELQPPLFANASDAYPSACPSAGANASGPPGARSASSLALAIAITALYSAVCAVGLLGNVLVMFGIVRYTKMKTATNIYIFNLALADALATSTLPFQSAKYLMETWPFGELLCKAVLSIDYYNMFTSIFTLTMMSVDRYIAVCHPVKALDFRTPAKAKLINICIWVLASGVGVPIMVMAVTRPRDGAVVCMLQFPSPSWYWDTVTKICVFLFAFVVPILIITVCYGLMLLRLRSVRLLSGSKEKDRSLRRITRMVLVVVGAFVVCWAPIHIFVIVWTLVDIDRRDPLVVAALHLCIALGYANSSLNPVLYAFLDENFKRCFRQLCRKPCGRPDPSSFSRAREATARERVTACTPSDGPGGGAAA
Property: Ki (µM)

Compound | Target Of Assay | Output Unit | Comparison Operator | Value Reported
CC[C@@H]1CN2CCc3c([nH]c4cccc(OC)c34)[C@@H]2C[C@@H]1/C(=C\OC)C(=O)NC | hDOR (Homo sapiens, UniProt P41143) | µM | > | 10
CCCNC(=O)/C(=C/OC)[C@H]1C[C@H]2c3[nH]c4cccc(OC)c4c3CCN2C[C@H]1CC | hDOR (Homo sapiens, UniProt P41143) | µM | > | 10
CC[C@@H]1CN2CCc3c([nH]c4cccc(OC)c34)[C@@H]2C[C@@H]1/C(=C\OC)C(=O)NC1CCCC1 | hDOR (Homo sapiens, UniProt P41143) | µM | > | 10
CC[C@@H]1CN2CCc3c([nH]c4cccc(OC)c34)[C@@H]2C[C@@H]1/C(=C\OC)C(=O)N(C)Cc1ccccc1 | hDOR (Homo sapiens, UniProt P41143) | µM | = | 4.52
CC[C@@H]1CN2CCc3c([nH]c4cccc(OC)c34)[C@@H]2C[C@@H]1/C(=C\OC)C(=O)NC1CCCCC1 | hDOR (Homo sapiens, UniProt P41143) | µM | > | 10
CC[C@@H]1CN2CC[C@@]3(O)C(=Nc4cccc(OC)c43)[C@@H]2C[C@@H]1/C(=C\OC)C(=O)OC [7-Hydroxy Mitragynine, reference compound] | hDOR (Homo sapiens, UniProt P41143) | µM | = | 0.243
CC[C@@H]1CN2CCc3c([nH]c4cccc(OC)c34)[C@@H]2C[C@@H]1/C(=C\OC)C(=O)N1CCOCC1 | hDOR (Homo sapiens, UniProt P41143) | µM | > | 10
CC[C@@H]1CN2CCc3c([nH]c4cccc(OC)c34)[C@@H]2C[C@@H]1/C(=C\OC)C(=O)N(C)C1CCCC1 | hDOR (Homo sapiens, UniProt P41143) | µM | = | 6.93
CCCN(C)C(=O)/C(=C/OC)[C@H]1C[C@H]2c3[nH]c4cccc(OC)c4c3CCN2C[C@H]1CC | hDOR (Homo sapiens, UniProt P41143) | µM | = | 4.03
CC[C@@H]1CN2CCc3c([nH]c4cccc(OC)c34)[C@@H]2C[C@@H]1/C(=C\OC)C(=O)OC [Mitragynine, mitragynine, reference compound] | hDOR (Homo sapiens, UniProt P41143) | µM | = | 1.95
CC[C@@H]1CN2CCc3c([nH]c4cccc(OC)c34)[C@@H]2C[C@@H]1/C(=C\OC)C(=O)N1CCCC1 | hDOR (Homo sapiens, UniProt P41143) | µM | = | 6.26
CC[C@@H]1CN2CC[C@@]3(O)C(=Nc4cccc(OC)c43)[C@@H]2C[C@@H]1/C(=C\OC)C(=O)N(C)C | hDOR (Homo sapiens, UniProt P41143) | µM | = | 0.802

---

target: α2A adrenergic receptor (Homo sapiens); construct: Eurofins Cerep (contract screening); assay: Radioligand binding assay (Eurofins Cerep), [3H]RX 821002 displacement; details: Ki (nM ± SEM) a2A-ar, Table 3-5; 3 independent experiments
Items are presented alongside their recorded Ki.

Compound | Ki
COC(=O)CC1CCN(CCc2c[nH]c3cccc(OC)c23)CC1 [Compound 3-22] | 229 nM
CO/C=C(/C(=O)OC)C1CCN(CCc2c[nH]c3ccccc23)CC1 [Compound 3-23] | 741 nM
COC(=O)CC1CCN(CCc2c[nH]c3ccccc23)CC1 [Compound 3-24] | 1410 nM
COC=C(C(=O)OC)C1CCN(Cc2c[nH]c3ccccc23)CC1 [Compound 3-57] | 867 nM
